# TARGET UNDER TEST: SARS-CoV-2 3CL-protease (Severe acute respiratory syndrome coronavirus 2 (2019-nCoV) (SARS-CoV-2), UniProt P0DTD1)
# EXPERIMENT DESCRIPTION: SARS-CoV-2 3C-like (3CL) protease fluorescence assay (FRET)
# MEASUREMENT CONTEXT: recombinant SARS-CoV-2 3CL-protease 10 nM, 30 min preincubation at RT, substrate 40 μM, duplicate
MEASUREMENT LABEL: IC50

Problem: Reported IC50, compound CC1(C)[C@@H]2[C@@H](C(=O)N[C@H](C#N)C[C@@H]3CCNC3=O)N(C(=O)c3cc4c(F)cc(F)cc4[nH]3)C[C@@H]21 : ____
Result: 100 to 1000 nM

Problem: Could you do the same for N#C[C@H](C[C@@H]1CCNC1=O)NC(=O)[C@@H]1CCCN1C(=O)c1cc2c(OC(F)F)cccc2[nH]1 , please?
Result: > 1000 nM

Problem: Could you do the same for N#C[C@H](C[C@@H]1CCNC1=O)NC(=O)[C@@H]1[C@H]2CCC[C@H]2CN1C(=O)c1cc2c(F)cc(F)cc2[nH]1 , please?
Result: 100 to 1000 nM

Problem: Could you do the same for O=C[C@H](C[C@@H]1CCNC1=O)NC(=O)[C@@H]1[C@H]2CCC[C@H]2CN1C(=O)c1cc2c(OC(F)F)cccc2[nH]1 , please?
Result: < 100 nM

Problem: Could you do the same for N#C[C@H](C[C@@H]1CCNC1=O)NC(=O)[C@@H]1[C@H]2CCC[C@H]2CN1C(=O)c1cc2c(OC(F)F)cccc2[nH]1 , please?
Result: 100 to 1000 nM

Problem: Could you do the same for CC(C)(C)C(=O)N[C@H](C(=O)N1C[C@H]2[C@@H]([C@H]1C(=O)N[C@H](C#N)C[C@@H]1CCNC1=O)C2(C)C)C(C)(C)C , please?
Result: < 100 nM

Problem: Could you do the same for O=C(NC1CCCCC1)C(=O)[C@H](C[C@@H]1CCNC1=O)NC(=O)[C@@H]1[C@H]2CCC[C@H]2CN1C(=O)c1cc2c(OC(F)F)cccc2[nH]1 , please?
Result: < 100 nM

Problem: Could you do the same for COc1cccc2[nH]c(C(=O)N3C[C@@H]4CCC[C@@H]4[C@H]3C(=O)N[C@@H](C[C@@H]3CCNC3=O)C(=O)CO)cc12 , please?
Result: 100 to 1000 nM

Problem: Could you do the same for CC(C)C(=O)N[C@H](C(=O)N1C[C@H]2[C@@H]([C@H]1C(=O)N[C@H](C#N)C[C@@H]1CCNC1=O)C2(C)C)C(C)(C)C , please?
Result: < 100 nM

Problem: Could you do the same for CC1(C)[C@@H]2[C@@H](C(=O)N[C@H](C#N)C[C@@H]3CCNC3=O)N(C(=O)c3cc4cc(F)c(F)cc4[nH]3)C[C@@H]21 , please?
Result: 100 to 1000 nM

Problem: Could you do the same for CC1(C)C2CN(C(=O)c3cc4c(OC(F)F)cccc4[nH]3)[C@H](C(=O)N[C@H](C#N)C[C@@H]3CCNC3=O)C21 (stereo in doubt) , please?
Result: 100 to 1000 nM

Problem: Could you do the same for CC(C)(C)[C@H](NC(=O)C1CCCCC1)C(=O)N1C[C@H]2[C@@H]([C@H]1C(=O)N[C@H](C#N)C[C@@H]1CCNC1=O)C2(C)C , please?
Result: < 100 nM

Problem: Could you do the same for CC1(C)[C@@H]2[C@@H](C(=O)N[C@H](C#N)C[C@@H]3CCNC3=O)N(C(=O)c3cc4c(Cl)cccc4[nH]3)C[C@@H]21 , please?
Result: 100 to 1000 nM
